binding response of second antibody (nm) by entry:
Molecular target: T1, human GFRα3 expressed with a C-terminal myc-myc-hexahistidine tag (human, UniProt O60609 32-374, biotinylated (sites not given) in ELISA format 2 and in the Octet cross-competition; not in SPR)
T1 construct: also called hGFRα3-mmh; hGFRα3-mmH
T1 sequence (O60609 other isoform, or with tags, fused parts or gaps limits assumed): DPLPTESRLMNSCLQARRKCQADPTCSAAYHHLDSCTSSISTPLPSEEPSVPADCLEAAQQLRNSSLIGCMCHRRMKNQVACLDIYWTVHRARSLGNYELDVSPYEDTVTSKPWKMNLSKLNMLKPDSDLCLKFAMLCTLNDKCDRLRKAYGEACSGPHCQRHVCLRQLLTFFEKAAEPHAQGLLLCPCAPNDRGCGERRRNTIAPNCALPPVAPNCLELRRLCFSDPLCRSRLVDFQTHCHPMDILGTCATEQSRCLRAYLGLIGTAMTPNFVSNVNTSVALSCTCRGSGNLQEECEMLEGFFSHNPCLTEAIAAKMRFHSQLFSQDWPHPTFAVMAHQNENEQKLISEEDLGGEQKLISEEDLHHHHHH
Test: Octet cross-competition; biotin-hGFRα3-mmH pre-saturated with first antibody H4H2350P
Description: A cross-competition assay was conducted to assess the ability of select antibodies to compete with one another for binding to human GFRα3 using an Octet RED384 biosensor (Fortebio Inc.). […] The real-time binding response was monitored during the course of the experiment and the binding response at the end of every step was recorded as shown in FIG. 9. […]
Dear colleague, please return just the value in nm, with no unit written.

Examples with answers:
Binder	Value Kind	Assay Value
H4H2291S (antibody, human IgG4, V domains shown, human IgG4 Fc (H4H)) VH: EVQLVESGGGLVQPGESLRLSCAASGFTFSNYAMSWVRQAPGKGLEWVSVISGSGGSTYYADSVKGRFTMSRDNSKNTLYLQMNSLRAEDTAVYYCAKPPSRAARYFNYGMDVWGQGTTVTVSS VL: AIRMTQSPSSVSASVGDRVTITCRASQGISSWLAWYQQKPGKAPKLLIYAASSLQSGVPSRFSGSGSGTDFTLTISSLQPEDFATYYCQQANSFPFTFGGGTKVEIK	binding response of second antibody (nm)	2.57
H4H2350P (antibody, human IgG4, V domains shown, human IgG4 Fc (H4H)) VH: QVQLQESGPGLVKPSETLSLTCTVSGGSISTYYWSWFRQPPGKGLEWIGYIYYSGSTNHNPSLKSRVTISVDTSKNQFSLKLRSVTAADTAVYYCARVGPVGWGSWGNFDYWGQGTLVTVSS VL: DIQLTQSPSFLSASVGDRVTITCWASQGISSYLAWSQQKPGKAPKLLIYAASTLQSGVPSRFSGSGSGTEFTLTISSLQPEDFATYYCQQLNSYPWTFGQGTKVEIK	binding response of second antibody (nm)	0.25

API: the following record is the query input.
What does the data say about its binding response of second antibody (nm)? Entry: H4H2243N2 (antibody, human IgG4, V domains shown, human IgG4 Fc (H4H)) VH: QVQLVQSGAEVKKPGASVKVSCKASGYTFTSYGIIWVRQAPGQGLEWMGWISGYNGNTNYAQNLQGRVTMTTDTSTTTAYMELRSLRSDDTAVYYCARWGIATRPYYYYGMDVWGQGTTVTVSS VL: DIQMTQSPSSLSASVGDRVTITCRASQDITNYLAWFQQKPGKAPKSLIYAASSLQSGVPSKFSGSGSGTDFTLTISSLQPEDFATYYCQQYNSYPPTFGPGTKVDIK 1.72
